Value source: PubChem BioAssay (NCATS)

# Test system: CRL-7250
# test_protocol: Cytotoxic Profiling of Annotated Libraries Using Quantitative High-Throughput Screening (AID 1296008); also: nearly all actives have a fitted effect of over 60% in size; also: potency is read from the fitted curve at half-maximal effect
# conditions_used: Five cell lines viability, CellTiter-Glo ATP luminescence, 48-72 h
Inconclusive results are not listed. Activity calls are given as the source filed them. Calls follow the shape of the dose curve; as a rule, active = well fitted inhibition curve with a large enough effect; inconclusive = small, poorly fitted or top-dose-only effect; inactive = flat fitted curve, though single readings scatter.
measured_quantity: Potency

molecular_string=COCCOc1nc(-c2ccc(Cl)c(Cl)c2)n(-c2ccc(NC(=O)CCl)cc2)n1 reported="6.62 µM (active)"
molecular_string=CC(C)(C)C(=O)Oc1ccc2c(c1)nc(NC(=O)c1cccc([N+](=O)[O-])c1)n2CCCO reported=inactive
molecular_string=CON=C(C(=O)N[C@@H]1C(=O)N2C(C(=O)OCOC(=O)C(C)(C)C)=C(C=Cc3scnc3C)CS[C@H]12)c1csc(N)n1 reported=inactive
molecular_string=CC1(C)S[C@H]2[C@H](NC(=O)[C@@H](N)c3ccc(O)cc3)C(=O)N2[C@@H]1C(=O)O reported=inactive
